B1: library; a variant is named by its letters at N, in order (parent)
chain: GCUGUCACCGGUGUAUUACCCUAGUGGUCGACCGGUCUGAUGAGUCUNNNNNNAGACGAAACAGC

Variants of: B1
Test: normalized RNA/DNA level with ligand (relative to sTRSVctl = 100) (log10 (% of sTRSVctl)); ligand: hypoxanthine (xanthine aptamer); higher = less ribozyme self-cleavage, higher mRNA level
Settings: ligand concentration (+) RNA-Seq: 5 mM, HEK293T, reporter: mCherry (pCS4076), ligand present: yes
Would you kindly list normalized RNA/DNA level with ligand (log10) for each of these variants?
// no unit string in output, number only

Q: May I ask what normalized RNA/DNA level with ligand (log10) has been recorded for GCUGUCACCGGUGUAUUACCCUAGUGGUCGACCGGUCUGAUGAGUCUGCUGACAGACGAAACAGC [GCUGAC] ?
Ans: 1.9

Q: Cool, now GCUGUCACCGGUGUAUUACCCUAGUGGUCGACCGGUCUGAUGAGUCUCCACUUAGACGAAACAGC [CCACUU]
Ans: 1.94

Q: Entry GCUGUCACCGGUGUAUUACCCUAGUGGUCGACCGGUCUGAUGAGUCUGUAAUAAGACGAAACAGC [GUAAUA] please
Ans: 1.88

Q: Next up: GCUGUCACCGGUGUAUUACCCUAGUGGUCGACCGGUCUGAUGAGUCUAUUUAUAGACGAAACAGC [AUUUAU]
Ans: 1.9

Q: // query: GCUGUCACCGGUGUAUUACCCUAGUGGUCGACCGGUCUGAUGAGUCUGAUCCGAGACGAAACAGC [GAUCCG]
Ans: 1.94

Q: How about GCUGUCACCGGUGUAUUACCCUAGUGGUCGACCGGUCUGAUGAGUCUGGGUACAGACGAAACAGC [GGGUAC] ?
Ans: 1.93

Q: Could you do the same for GCUGUCACCGGUGUAUUACCCUAGUGGUCGACCGGUCUGAUGAGUCUGUGAGUAGACGAAACAGC [GUGAGU] , please?
Ans: 1.94

Q: Note, next up: GCUGUCACCGGUGUAUUACCCUAGUGGUCGACCGGUCUGAUGAGUCUUUCCUCAGACGAAACAGC [UUCCUC]
Ans: 1.97

Q: Another variant to look at: GCUGUCACCGGUGUAUUACCCUAGUGGUCGACCGGUCUGAUGAGUCUGGGGACAGACGAAACAGC [GGGGAC]
Ans: 1.91

Q: What would you report for GCUGUCACCGGUGUAUUACCCUAGUGGUCGACCGGUCUGAUGAGUCUAUUCGUAGACGAAACAGC [AUUCGU] ?
Ans: 1.93

Q: Follow-up entry: GCUGUCACCGGUGUAUUACCCUAGUGGUCGACCGGUCUGAUGAGUCUGAGGACAGACGAAACAGC [GAGGAC]
Ans: 1.91

Q: Now try GCUGUCACCGGUGUAUUACCCUAGUGGUCGACCGGUCUGAUGAGUCUGCACGCAGACGAAACAGC [GCACGC] .
Ans: 1.96

Q: Can you handle GCUGUCACCGGUGUAUUACCCUAGUGGUCGACCGGUCUGAUGAGUCUAGUUGGAGACGAAACAGC [AGUUGG] next?
Ans: 1.8

Q: Try the variant GCUGUCACCGGUGUAUUACCCUAGUGGUCGACCGGUCUGAUGAGUCUAAAUAGAGACGAAACAGC [AAAUAG]
Ans: 1.84

Q: Next variant up: GCUGUCACCGGUGUAUUACCCUAGUGGUCGACCGGUCUGAUGAGUCUUGAGGCAGACGAAACAGC [UGAGGC]
Ans: 1.94

Q: And for GCUGUCACCGGUGUAUUACCCUAGUGGUCGACCGGUCUGAUGAGUCUGGGUAUAGACGAAACAGC [GGGUAU] ?
Ans: 1.94

Q: // same read-out, input: GCUGUCACCGGUGUAUUACCCUAGUGGUCGACCGGUCUGAUGAGUCUUACGGCAGACGAAACAGC [UACGGC]
Ans: 1.95

Q: Next up: GCUGUCACCGGUGUAUUACCCUAGUGGUCGACCGGUCUGAUGAGUCUCACACGAGACGAAACAGC [CACACG]
Ans: 1.96

Q: Try this variant too: GCUGUCACCGGUGUAUUACCCUAGUGGUCGACCGGUCUGAUGAGUCUACACAAAGACGAAACAGC [ACACAA]
Ans: 1.92

Q: Repeat for the following variant: GCUGUCACCGGUGUAUUACCCUAGUGGUCGACCGGUCUGAUGAGUCUAGCGCCAGACGAAACAGC [AGCGCC]
Ans: 1.93

Q: Next up: GCUGUCACCGGUGUAUUACCCUAGUGGUCGACCGGUCUGAUGAGUCUCUGUAGAGACGAAACAGC [CUGUAG]
Ans: 1.88

Q: And the next one, GCUGUCACCGGUGUAUUACCCUAGUGGUCGACCGGUCUGAUGAGUCUUAUAAGAGACGAAACAGC [UAUAAG] ?
Ans: 1.87
